# Tested on: 415267-285-R-J2-PDC complex spheroid viability;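 note: luminescence used as stand-in measure of viable cells; spheroids exposed to compounds for one week before readout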
# Experimental Details: Anticancer human tumor 415267-285-R-J2-PDC patient-derived breast carcinoma cell line growth inhibition [POLQ]
# Details: second compound 0.0316 µM; first compound 3.16 µM; active compounds read low
// returns Criterion not met unless viability, T/C is strictly below 80%, in which case Criterion met

Hi there! Is viability, T/C for CC1COCCN1c1cc(-c2ccnn2C)c2ccnc(-c3ccn[nH]3)c2n1 (stereo not drawn) + Cc1cccc(N(C)C(=O)C2C(O)CCN2c2nc(C)cc(C(F)(F)F)c2C#N)c1 below 80%, do you know?
Criterion met

Hi there! Is viability, T/C for COc1cc(C2c3cc4c(cc3C(OC3OC5COC(C)OC5C(O)C3O)C3COC(=O)C23)OCO4)cc(OC)c1O (stereo not drawn) + COC1C(OC(N)=O)C(O)C(Oc2ccc3c(O)c(NC(=O)c4ccc(O)c(CC=C(C)C)c4)c(=O)oc3c2C)OC1(C)C below 80%, do you know?
Criterion met

Hi there! Is viability, T/C for O=C(Nc1ccc(O)c(NS(=O)(=O)c2ccc(F)cc2)c1)c1ccc(-c2ccccc2)cc1 + COC1C(OC(N)=O)C(O)C(Oc2ccc3c(O)c(NC(=O)c4ccc(O)c(CC=C(C)C)c4)c(=O)oc3c2C)OC1(C)C below 80%, do you know?
Criterion not met

Hi there! Is viability, T/C for O=c1[nH]cc(F)c(=O)[nH]1 + Nc1ccc(C#CCN(C(=O)Cc2ncc(C(F)(F)F)cc2C(F)(F)F)c2ccc(F)cc2)nn1 below 80%, do you know?
Criterion met

Hi there! Is viability, T/C for COc1ccc([C@@H](O)c2cc(-c3ncnc4cc(N5CCOCC5)ccc34)c(F)cc2Cl)nn1 + Nc1ccc(C#CCN(C(=O)Cc2ncc(C(F)(F)F)cc2C(F)(F)F)c2ccc(F)cc2)nn1 below 80%, do you know?
Criterion not met

Hi there! Is viability, T/C for CC1COCCN1c1cc(-c2ccnn2C)c2ccnc(-c3ccn[nH]3)c2n1 (stereo not drawn) + COC1C(OC(N)=O)C(O)C(Oc2ccc3c(O)c(NC(=O)c4ccc(O)c(CC=C(C)C)c4)c(=O)oc3c2C)OC1(C)C below 80%, do you know?
Criterion met

Hi there! Is viability, T/C for C#Cc1c(F)ccc2cc(O)cc(-c3ncc4c(N5CC6CCC(C5)N6)nc(OCC56CCCN5CC(F)C6)nc4c3F)c12 (stereo not drawn) + COC1C(OC(N)=O)C(O)C(Oc2ccc3c(O)c(NC(=O)c4ccc(O)c(CC=C(C)C)c4)c(=O)oc3c2C)OC1(C)C below 80%, do you know?
Criterion not met

Hi there! Is viability, T/C for COc1cc(C2c3cc4c(cc3C(OC3OC5COC(C)OC5C(O)C3O)C3COC(=O)C23)OCO4)cc(OC)c1O (stereo not drawn) + Nc1ccc(C#CCN(C(=O)Cc2ncc(C(F)(F)F)cc2C(F)(F)F)c2ccc(F)cc2)nn1 below 80%, do you know?
Criterion met

Hi there! Is viability, T/C for CC1COCCN1c1cc(-c2ccnn2C)c2ccnc(-c3ccn[nH]3)c2n1 (stereo not drawn) + Nc1ccc(C#CCN(C(=O)Cc2ncc(C(F)(F)F)cc2C(F)(F)F)c2ccc(F)cc2)nn1 below 80%, do you know?
Criterion met

Hi there! Is viability, T/C for CCc1cc2c(N3CCc4c(cc(Cn5ccnc5)cc4-c4cn(C)nc4C(F)(F)F)C3=O)cc(C)nc2c(OC)n1 + Cc1cccc(N(C)C(=O)C2C(O)CCN2c2nc(C)cc(C(F)(F)F)c2C#N)c1 below 80%, do you know?
Criterion not met

Hi there! Is viability, T/C for CNCc1ccc(-c2[nH]c3cc(F)cc4c3c2CCNC4=O)cc1 + Nc1ccc(C#CCN(C(=O)Cc2ncc(C(F)(F)F)cc2C(F)(F)F)c2ccc(F)cc2)nn1 below 80%, do you know?
Criterion not met

Hi there! Is viability, T/C for O=C(Nc1ccc(O)c(NS(=O)(=O)c2ccc(F)cc2)c1)c1ccc(-c2ccccc2)cc1 + Nc1ccc(C#CCN(C(=O)Cc2ncc(C(F)(F)F)cc2C(F)(F)F)c2ccc(F)cc2)nn1 below 80%, do you know?
Criterion not met
